This collection of values is drawn from PubChem BioAssay (NCI).

System: CCRF-CEM leukemia
Assay: NCI-60 one-dose screen, 48 h
Conditions: 10 µM
Compounds without any hit were thinned out: in the full panel of roughly 83,000, 20% have a hit. Activity calls are given as the source filed them. How the source made its calls: active means growth percent below 10; inactive means the rest.
Permitted responses: true (active), false (inactive)

Q: What classification did "N#Cc1ncc(-c2cc(F)ccc2F)c(NC2CCCCCC2)n1" end up with in this test?
Ans: false

====

Tested on: OVCAR-8 ovarian
Assay: NCI-60 one-dose screen, 48 h
Settings: 10 µM
About 83,000 compounds went through this panel and 20% of them were active in at least one assay; those are over-represented in the sample as a whole. Activity calls are given as the source filed them. The calls were made as follows: active = growth percent below 10; inactive = the rest.
Permitted responses: active, inactive

COc1ccc2oc(=O)cc(C(c3ccc[nH]3)c3ccc[nH]3)c2c1 = active
COc1cc(OC)cc(-c2n/c(=C\c3c(O)[nH]c4ccc(OC)cc34)cc3c2=Nc2ccccc2-3)c1 = inactive
COC(=O)c1ccc(Cn2ccc(=O)[nH]c2=O)cc1 = inactive

Q: What classification did C[N+]1(CC2CO2)CCCCCC1 (centres undefined) end up with in this test?
Ans: inactive

====

Tested on: NCI-H460 lung
Assay: NCI-60 one-dose screen, 48 h (100 = growth as untreated, 0 = no growth, -100 = all killed)
Conditions: 10 µM
This is part of a sample that, as a whole, favours compounds with a hit. Of some 83,000 tested, about 20% had one in any assay.
Answer class 0 if growth is under 50%, and class 1 if it is 50% or more.

Solved cases (5 shown):
CCc1c(C(=O)NCc2c(O)ccc3cccc(O)c23)[nH]c(C)c1C(C)=O = class 0
C#Cc1ccc(-n2c(/C=C/c3cc(OC)c(OC)c(OC)c3)nc3ncccc3c2=O)cc1 = class 1
NC(=O)C1CCCN(Cc2c[nH]c3ccccc23)C1 (stereo unspecified) = class 1
COc1ccccc1NC1=C(N2CCCCC2)C(=O)c2ccccc2C1=O = class 1
CCC(CCNc1cc(OC)cc2cccnc12)CN1C(=O)c2ccccc2C1=O (stereo unspecified) = class 1

Q: Does "O=NN(CCCl)C(=O)Nc1ccc(NC(=O)N(CCCl)N=O)cc1" have a reported growth of at least 50%?
Ans: class 1

Q: Does "COC(=O)[C@]12CC[C@@H](C)[C@H](C)[C@@H]1C1=CC[C@@H]3[C@@]4(C)CC(=O)[C@H](O)[C@@](C)(CO)[C@@H]4C(=O)C[C@@]3(C)[C@]1(C)CC2" have a reported growth of at least 50%?
Ans: class 0

Q: Does "C[C@]12CC[C@H]3[C@@H](CC=C4C[C@@H](O)CC[C@@]43C)[C@@H]1CC[C@@H]2C(=O)C/C=N/O" have a reported growth of at least 50%?
Ans: class 1

Q: Does "COc1ccc2nc(NC(=O)Nc3c(F)cccc3F)sc2c1" have a reported growth of at least 50%?
Ans: class 1

Q: Does "Fc1ccc2[nH]c3c(NCCCN4CCOCC4)ncnc3c2c1" have a reported growth of at least 50%?
Ans: class 1

Q: Does "C[N+]1=C(/C=C/c2ccc(I)cc2)C(C)(C)c2ccccc21" have a reported growth of at least 50%?
Ans: class 1

Q: Does "CCNC(=S)NN" have a reported growth of at least 50%?
Ans: class 1

Q: Does "COc1ccc2nc(/C=C/c3ccc(N(C)C)cc3)sc2c1" have a reported growth of at least 50%?
Ans: class 1

Q: Does "O=C/C=C/c1ccc([N+](=O)[O-])cc1Cl" have a reported growth of at least 50%?
Ans: class 1

Q: Does "COCc1cc2c(cc1Br)OCO2" have a reported growth of at least 50%?
Ans: class 1

Q: Does "C#CCNCCN1C(=O)c2ccc3c4c(ccc(c24)C1=O)C(=O)N(CCNCC#C)C3=O" have a reported growth of at least 50%?
Ans: class 0

Q: Does CCCCN(CCCC)c1ccc(C(=NC(C)CCCN(CC)CC)c2ccc(N(C)C)cc2)cc1 (stereo unspecified) have a reported growth of at least 50%?
Ans: class 0

Q: Does "Cc1ccc(-n2c(-c3cc4c([nH]c5ccccc54)c(-c4cccc(O)c4)n3)n[nH]c2=S)cc1" have a reported growth of at least 50%?
Ans: class 0

Q: Does "Cc1ccccc1[P+](Cc1ccccc1)(c1ccccc1)c1ccccc1" have a reported growth of at least 50%?
Ans: class 0

Q: Does "COc1ccc(-c2cn[nH]c2-c2cc(OC)c(OC)c(OC)c2)cc1" have a reported growth of at least 50%?
Ans: class 0

Q: Does "Cc1cc(/C=C2\SC(=Nc3ccccc3)N(C3CCCC3)C2=O)c(C)n1-c1ccc(Cl)cc1" have a reported growth of at least 50%?
Ans: class 0

====

System: HOP-62 NSCLC
Assay: NCI-60 one-dose screen, 48 h (100 = growth as untreated, 0 = no growth, -100 = all killed)
Conditions: 10 µM
The panel holds about 83,000 compounds, 20% with a hit somewhere; the sample as a whole holds those more often.
# growth annotations
State the answer as a number, implicitly in %.

Entry "NC(=O)c1ccc(Br)o1" ; assay system HOP-62 NSCLC; growth recorded at 91.7

Entry "O=CNc1c(Cl)cc2c(c1Cl)Cc1cc([N+](=O)[O-])ccc1-2" ; assay system HOP-62 NSCLC; growth recorded at 67.6

Entry "Oc1ccc(Cn2cc3c(c2-c2ccccc2)CCc2cnoc2-3)cc1" ; assay system HOP-62 NSCLC; growth recorded at 99.2

Entry "O=C(O)c1ccccc1C(=O)c1cccc2c(F)cccc12" ; assay system HOP-62 NSCLC; growth recorded at 105

Entry "N#C/C(=C/c1cc([N+](=O)[O-])ccc1Cl)C(N)=O" ; assay system HOP-62 NSCLC; growth recorded at 94.8

Entry "Oc1[nH]c2ccccc2c1/C=c1/cc2c(c(-c3ccc(C(F)(F)F)cc3)n1)=Nc1ccccc1-2" ; assay system HOP-62 NSCLC; growth recorded at 85

====

# growth annotations
Test system: MOLT-4 leukemia
Assay: NCI-60 one-dose screen, 48 h (100 = growth as untreated, 0 = no growth, -100 = all killed)
Details: 10 µM
Method: Growth inhibition of the MOLT-4 human tumor cell line is measured as a screen for anti-cancer activity. Cells are grown in 96 well plates and exposed to the test compound for 48 hours. Compounds are tested at a single concentration, which is 10^-5 M for most compounds. The reported endpoint is percent growth (GI% or GIPRCNT), where numbers from 0 - 100% represent growth inhibition, and numbers from -100% - 0 represent cell death. For example, a value of 40 represents 60% growth inhibition. […]
This is part of a sample that, as a whole, favours compounds with a hit. Of some 83,000 tested, about 20% had one in any assay.
State the answer as a number, implicitly in %.

# example entries with known answers
COc1ccc(-c2[nH]ncc2/C=C/c2cc(C(F)(F)F)[nH]c(=O)n2)cc1 = 86
N#C/C(=C\N1C(=O)/C(=C/c2cccc([N+](=O)[O-])c2)SC1=S)c1nc2ccccc2s1 = 87
CCCCCCOc1ccc(/C=C/C(=O)c2ccc(B(O)O)cc2)cc1 = 58.3
CCn1nc(-c2ccc(C(=O)OC)cc2)nc2c(=O)n(C)c(=O)nc1-2 = 101

Noted for "CCCCC(CC#N)(CCC)CCC" : its growth reads 97.5

Noted for "O=C/C=C/c1ccc([N+](=O)[O-])cc1Cl" : its growth reads 86.6

Noted for "CC(=O)Nc1ccc(Sc2ccc(NC(C)=O)cc2)cc1" : its growth reads 71.6

Noted for "COC(=O)c1c(C)nc(Nc2nc3ccccc3s2)nc1-c1ccc(Cl)cc1Cl" : its growth reads 84.7

Noted for "Cc1ccc(/C(CS(=O)(=O)c2ccc(C)cc2)=N\O)cc1" : its growth reads 102

Noted for "CCc1c(C)[nH]c(=O)c(C(N)=O)c1C#N" : its growth reads 107

Noted for "CNC(=S)Sc1ccc([N+](=O)[O-])cc1[N+](=O)[O-]" : its growth reads 43.7

Noted for COc1cccc(C2(C)Nc3ccccc3-c3nc4ccccc4n32)c1 (centres undefined) : its growth reads 84.5

Noted for Cn1c(=O)c2[nH]c(C(O)c3ccc(Cl)cc3)nc2n(C)c1=O (centres undefined) : its growth reads 103

====

System: HOP-62 NSCLC
Experiment: NCI-60 one-dose screen, 48 h (100 = growth as untreated, 0 = no growth, -100 = all killed)
Settings: 10 µM
This is part of a sample that, as a whole, favours compounds with a hit. Of some 83,000 tested, about 20% had one in any assay.
PARAMETER_MEASURED: growth (%)
State the answer as a number, implicitly in %.

Noted for "CCCCc1ccc(NC(=O)N(CCCl)N=O)cc1" : its growth reads 90.8

====

System: SNB-75 CNS
Test: NCI-60 one-dose screen, 48 h (100 = growth as untreated, 0 = no growth, -100 = all killed)
Details: 10 µM
The panel holds about 83,000 compounds, 20% with a hit somewhere; the sample as a whole holds those more often.
Answer Criterion not met if growth is under 70%, and Criterion met if it is 70% or more.

Q: Does Nc1nc2c(ncn2C2OC3COP(=O)(O)OC4C(COP(=O)(O)OC2C3O)OC(n2cnc3c(N)ncnc32)C4O)c(=O)[nH]1 (stereo not drawn) have a reported growth of at least 70%?
Ans: Criterion met

Q: Does "O=C1CC[C@@H](C(=O)N[C@H]2CSSC[C@@H](C(=O)NCCc3ccccc3)NC(=O)[C@H](Cc3ccccc3)NC(=O)[C@@H]3CCCN3C(=O)[C@@H]3CCCN3C2=O)N1" have a reported growth of at least 70%?
Ans: Criterion met

Q: Does "COc1ccc(CCc2nc3cc(-c4c(C)noc4C)ccc3n2CCN2CCOCC2)cc1" have a reported growth of at least 70%?
Ans: Criterion not met
